The values you see were collected from patent US20120107330A1.

experimentalTarget: T1, mouse TNFR1 (recombinant, R&D Systems cat no. 425-R1-050/CF, biotinylated) (mouse, UniProt P25118 22-212, biotinylated with EZ-Link NHS-LC-LC-biotin)
T1 construct: also called murine TNFR1; biotinylated mouse TNFR1
T1 sequence (looked up): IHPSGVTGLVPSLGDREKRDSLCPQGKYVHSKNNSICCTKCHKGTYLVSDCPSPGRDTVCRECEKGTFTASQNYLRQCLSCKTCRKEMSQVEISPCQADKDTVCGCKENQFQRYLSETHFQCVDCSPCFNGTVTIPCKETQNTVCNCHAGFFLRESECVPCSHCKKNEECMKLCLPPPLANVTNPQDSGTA
runDescription: BIAcore, mouse TNFR1 on SA chip
Source text: BIAcore was done to determine the association and dissociation rates of the different dAbs and in that way establish their binding affinity for both human and mouse TNFR1. Experiments were done using biotinylated TNFR1 (R&D Systems), of the respective species, coupled to streptavidin-coated BIAcore chips followed by injection of a concentration range of the dAbs.
readoutName: koff (s⁻¹)
Please give a number only; it is taken to be in s⁻¹.

Consider the binder DOM1h-574-162 (other, VH dAb) VH: EVQLLESGGGLVQPGGSLRLSCAASGFTFFKYSMGWVRQAPGKGLEWVSQISDTADRTYYSHSVKGRFTISRDNSKNTLYLQMNSLRAEDTAVYYCAIYTGRWVPFEYWGQGTLVTVSS . State its measured koff.
0.00034

Consider the binder DOM1h-574-109 (other, VH dAb) VH: EVQLLESGGGLVQPGGSLRLSCAASGFTFVKYSMGWVRQAPGKGLEWVSQISDTADRTYYAHSVKGRFTISRDNSKNTLYLQMNSLRAEDTAVYYCAIYTGRWVPFEYWGQGTLVTVSS . State its measured koff.
0.00033

Consider the binder DOM1h-574-155 (other, VH dAb) VH: EVQLLESGGGLVQPGGSLRLSCAASGFTFLKYSMGWVRQAPGKGLEWVSQISDTADRTYYAHSVKGRFTISRDNSKNTLYLQMNSLRAEDTAVYYCAIYTGRWVPFEYWGQGTLVTVSS . State its measured koff.
0.00033
